tested.on: Sterol 14alpha-demethylase (Mycobacterium tuberculosis) (UniProt P9WPP9)
Sequence (whole entry): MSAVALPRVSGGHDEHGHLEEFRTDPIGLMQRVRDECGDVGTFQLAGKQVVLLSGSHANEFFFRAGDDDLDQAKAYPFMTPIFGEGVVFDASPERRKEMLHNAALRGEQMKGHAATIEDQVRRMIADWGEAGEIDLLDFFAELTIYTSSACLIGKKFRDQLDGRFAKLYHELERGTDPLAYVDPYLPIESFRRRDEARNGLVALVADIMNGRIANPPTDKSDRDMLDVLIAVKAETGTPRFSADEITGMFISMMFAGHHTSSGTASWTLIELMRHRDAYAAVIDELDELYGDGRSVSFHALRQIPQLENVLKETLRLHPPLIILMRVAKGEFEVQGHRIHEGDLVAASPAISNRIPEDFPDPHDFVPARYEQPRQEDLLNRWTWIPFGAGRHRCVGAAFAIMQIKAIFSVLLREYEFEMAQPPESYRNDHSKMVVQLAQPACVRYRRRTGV
experiment.summary: Binding affinity to N-terminal His-tagged Mycobacterium tuberculosis H37Rv ATCC 25618 CYP51 expressed in Escherichia coli Rosetta (DE3) by spectrophotometric analysis
Activity calls are given as the source filed them. No cut-off for these calls is given here.
Just give me one of these, please: active, inactive

Qu. In this assay, the call recorded for N/C(=N/NC(CC(=O)c1ccc(-n2ccnc2)cc1)c1cccc([N+](=O)[O-])c1)c1ccccn1 (stereo not given) was what?
Ans. inactive

Qu. Which outcome did this test record for the molecule N/C(=N/NC(CC(=O)c1ccc(-n2ccnc2)cc1)c1ccc(Br)cc1)c1ccccn1 (stereo not given) ?
Ans. inactive

Qu. Each molecule tested received a call. Report the one for N/C(=N/NC(CC(=O)c1ccc(-n2ccnc2)cc1)c1cccc(Cl)c1)c1ccccn1 (stereo not given) .
Ans. inactive

Qu. Called result for N/C(=N/NC(CC(=O)c1ccc(-n2ccnc2)cc1)c1ccccc1Br)c1ccccn1 (stereo not given)
Ans. inactive

Qu. Could you check what this test reported for N/C(=N/NC(CC(=O)c1ccc(-n2ccnc2)cc1)c1ccccc1Cl)c1ccccn1 (stereo not given) ?
Ans. inactive

Qu. How was N/C(=N/NC(CC(=O)c1ccc(-n2ccnc2)cc1)c1ccc(Cl)cc1)c1ccccn1 (stereo not given) classified in this test?
Ans. inactive

Qu. I'd appreciate the recorded outcome for N/C(=N/NC(CC(=O)c1ccc(-n2ccnc2)cc1)c1ccccc1)c1ccccn1 (stereo not given) from this test.
Ans. inactive

Qu. Entry N/C(=N/NC(CC(=O)c1ccc(-n2ccnc2)cc1)c1cccc(Br)c1)c1ccccn1 (stereo not given) : call = ?
Ans. inactive

Qu. Test call, this molecule: N/C(=N/NC(CC(=O)c1ccc(-n2ccnc2)cc1)c1ccc(Cl)cc1Cl)c1ccccn1 (stereo not given)
Ans. inactive

Qu. Field: outcome | Entry: N/C(=N/NC(CC(=O)c1ccc(-n2ccnc2)cc1)c1cccc(F)c1)c1ccccn1 (stereo not given)
Ans. inactive

Qu. Recorded test outcome, item Clc1ccc(COC(Cn2ccnc2)c2ccc(Cl)cc2Cl)cc1 (stereo not given)
Ans. active

Qu. Test call for this molecule, please: N/C(=N/NC(CC(=O)c1ccc(-n2ccnc2)cc1)c1ccccc1[N+](=O)[O-])c1ccccn1 (stereo not given)
Ans. inactive

Qu. What call does the record list for N/C(=N/NC(CC(=O)c1ccc(-n2ccnc2)cc1)c1ccc([N+](=O)[O-])cc1)c1ccccn1 (stereo not given) ?
Ans. inactive

Qu. # lookup: test call for N/C(=N/NC(CC(=O)c1ccc(-n2ccnc2)cc1)c1ccc(F)cc1)c1ccccn1 (stereo not given)
Ans. inactive

Qu. Dear all, I need the recorded test outcome for N/C(=N/NC(CC(=O)c1ccc(-n2ccnc2)cc1)c1ccccc1F)c1ccccn1 (stereo not given) , thank you.
Ans. inactive

This collection of values is drawn from ChEMBL document CHEMBL3817752.
